- Test system: Recombinant, phosphorylated p38 MAPKγ (MAPK12:Invitrogen) (Homo sapiens)
- Sequence (P53778 1-367): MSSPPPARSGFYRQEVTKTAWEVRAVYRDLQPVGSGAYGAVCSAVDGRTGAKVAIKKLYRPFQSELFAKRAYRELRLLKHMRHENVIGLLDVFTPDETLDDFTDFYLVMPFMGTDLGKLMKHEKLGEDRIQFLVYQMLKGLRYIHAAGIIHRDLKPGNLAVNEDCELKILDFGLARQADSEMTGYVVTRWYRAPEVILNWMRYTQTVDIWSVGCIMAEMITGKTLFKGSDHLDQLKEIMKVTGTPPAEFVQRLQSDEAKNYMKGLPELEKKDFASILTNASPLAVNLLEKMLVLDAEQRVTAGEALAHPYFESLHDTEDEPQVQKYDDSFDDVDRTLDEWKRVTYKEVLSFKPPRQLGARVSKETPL
- Assay procedure: p38 MAPKγ enzyme inhibition assay (FRET, Z-LYTE)
- Assay context: 2 hr pre-incubation, ATP 100 μM; read-out: Enzyme Inhibition IC50 p38γ
pIC50: −log10 of the molar value.
pIC50 for assorted compounds

[
  {
    "Compound": "COCCOCC(=O)Nc1cc(Cc2ccc(NC(=O)Nc3cc(C(C)(C)C)nn3-c3ccc(C)cc3)c3ccccc23)ccn1 [Example 65]",
    "pIC50": 6.56
  },
  {
    "Compound": "COCC(=O)Nc1cc(Oc2ccc(NC(=O)Nc3cc(C45CC6CC(CC(C6)C4)C5)nn3-c3ccc(C)cc3)c3ccccc23)ccn1 [Example 27]",
    "pIC50": 5.71
  },
  {
    "Compound": "COCC(=O)Nc1cc(Oc2ccc(NC(=O)Nc3cc(C(C)(C)C)nn3-c3ccc(OC)cc3)c3ccccc23)ccn1 [Example 3]",
    "pIC50": 7.24
  },
  {
    "Compound": "COCC(=O)Nc1cc(Oc2ccc(NC(=O)Nc3cc(C(C)(C)C)nn3-c3cccc(OC)c3)c3ccccc23)ccn1 [Example 36]",
    "pIC50": 6.82
  },
  {
    "Compound": "COCC(=O)Nc1cc(Oc2ccc(NC(=O)Nc3cc(C(C)(C)C)nn3-c3ccc(Cl)cc3)c3ccccc23)ccn1 [Example 42]",
    "pIC50": 6.62
  },
  {
    "Compound": "COCC(=O)Nc1cc(Oc2ccc(NC(=O)Nc3cc(C(C)(C)C)nn3-c3ccc(Cl)c(Cl)c3)c3ccccc23)ccn1 [Example 55]",
    "pIC50": 6.99
  },
  {
    "Compound": "CN1CCN(C(=O)Nc2cc(Oc3ccc(NC(=O)Nc4cc(C(C)(C)C)nn4-c4ccc(S(C)(=O)=O)cc4)c4ccccc34)ccn2)CC1 [Example 48]",
    "pIC50": 6.91
  },
  {
    "Compound": "COCC(=O)Nc1cc(Oc2ccc(NC(=O)Nc3cc(C(C)(C)C)nn3-c3ccc(NS(C)(=O)=O)cc3)c3ccccc23)ccn1 [Example 2]",
    "pIC50": 7.37
  },
  {
    "Compound": "COCC(=O)Nc1cc(Oc2ccc(NC(=O)Nc3cc(C(C)(C)C)nn3-c3ccc(CO)c(OC)c3)c3ccccc23)ccn1 [Example 51]",
    "pIC50": 6.83
  },
  {
    "Compound": "COCC(=O)Nc1cc(Oc2ccc(NC(=O)Nc3cc(C(C)(C)C)nn3-c3ccc(SC)cc3)c3ccccc23)ccn1 [Example 44]",
    "pIC50": 6.71
  },
  {
    "Compound": "CN(C)C(=O)Nc1cc(Oc2ccc(NC(=O)Nc3cc(C(C)(C)C)nn3-c3ccc(O)cc3)c3ccccc23)ccn1 [Example 34]",
    "pIC50": 7.05
  },
  {
    "Compound": "COCC(=O)Nc1cc(Oc2ccc(NC(=O)Nc3cc(C(C)(C)C)nn3-c3ccc(O)nc3)c3ccccc23)ccn1.Cl [Example 17]",
    "pIC50": 7.12
  },
  {
    "Compound": "CC(C)(C)c1cc(NC(=O)Nc2ccc(Oc3ccnc(NC(=O)N4CCOCC4)c3)c3ccccc23)n(-c2ccc(O)c(Cl)c2)n1 [Example 12]",
    "pIC50": 6.83
  },
  {
    "Compound": "CSc1ccc(-n2nc(C(C)(C)C)cc2NC(=O)Nc2ccc(Oc3ccnc(NC(=O)N4CCCC4)c3)c3ccccc23)cc1 [Example 14]",
    "pIC50": 6.40
  },
  {
    "Compound": "COc1ccc(-n2nc(C(C)(C)C)cc2NC(=O)Nc2ccc(Oc3ccnc(NC(=O)N4CCN(C)CC4)c3)c3ccccc23)cc1 [Example 10]",
    "pIC50": 6.98
  },
  {
    "Compound": "CNS(=O)(=O)Cc1ccc(-n2nc(C(C)(C)C)cc2NC(=O)Nc2ccc(Oc3ccnc(NC(=O)COC)c3)c3ccccc23)cc1 [Example 31]",
    "pIC50": 7.11
  },
  {
    "Compound": "COCC(=O)Nc1cc(Oc2ccc(NC(=O)Nc3cc(C(C)(C)C)nn3-c3ccc(OC)c(OC)c3)c3ccccc23)ccn1 [Example 11]",
    "pIC50": 6.82
  },
  {
    "Compound": "COCC(=O)Nc1cc(COc2ccc(NC(=O)Nc3cc(C(C)(C)C)nn3-c3ccc(OC)nc3)c(C)c2C)ccn1 [Example 61]",
    "pIC50": 5.55
  },
  {
    "Compound": "CC(C)(C)c1cc(NC(=O)Nc2ccc(Oc3ccnc(NC(=O)NC4CC4)c3)c3ccccc23)n(-c2ccc(S(C)(=O)=O)cc2)n1 [Example 47]",
    "pIC50": 6.58
  },
  {
    "Compound": "COc1ccc(-n2nc(C(C)(C)C)cc2NC(=O)Nc2ccc(Oc3ccnc(NC(=O)N(C)C)c3)c3ccccc23)cc1 [Example 7]",
    "pIC50": 6.86
  },
  {
    "Compound": "COCC(=O)Nc1cc(Cc2ccc(NC(=O)Nc3cc(C(C)(C)C)nn3-c3ccc(C)cc3)c3ccccc23)ccn1 [Example 64]",
    "pIC50": 5.78
  },
  {
    "Compound": "COCC(=O)Nc1cc(Oc2ccc(NC(=O)Nc3cc(C4(C)CCCCC4)nn3-c3ccc(C)cc3)c3ccccc23)ccn1 [Example 26]",
    "pIC50": 6.11
  },
  {
    "Compound": "COCC(=O)Nc1cc(Oc2ccc(NC(=O)Nc3cc(C(C)(C)C)nn3-c3ccc(N)cc3)c3ccccc23)ccn1 [Example 1]",
    "pIC50": 7.14
  },
  {
    "Compound": "COCC(=O)Nc1cc(Oc2ccc(NC(=O)Nc3cc(C4(C)CCOCC4)nn3-c3ccc(C)cc3)c3ccccc23)ccn1 [Example 20]",
    "pIC50": 6.85
  },
  {
    "Compound": "COCC(=O)Nc1cc(Oc2ccc(NC(=O)Nc3cc(C4CC4)nn3-c3ccc(C)cc3)c3ccccc23)ccn1 [Example 24]",
    "pIC50": 5.87
  },
  {
    "Compound": "COc1ccc(-n2nc(C(C)(C)C)cc2NC(=O)Nc2ccc(Oc3ccnc(NC(=O)N4CCCC4)c3)c3ccccc23)cc1 [Example 8]",
    "pIC50": 6.64
  },
  {
    "Compound": "COCC(=O)Nc1cc(Oc2ccc(NC(=O)Nc3cc(C(C)(C)C)nn3-c3ccc(C(=O)OC)cc3)c3ccccc23)ccn1 [Example 43]",
    "pIC50": 6.72
  },
  {
    "Compound": "CNC(=O)Nc1cc(Oc2ccc(NC(=O)Nc3cc(C(C)(C)C)nn3-c3ccc(OC)nc3)c(C)c2C)ccn1 [Example 39]",
    "pIC50": 7.09
  }
]
